- measuredOn: His-ATAD2 BD (Homo sapiens, UniProt Q6PL18)
measure: pIC50
Numbers only, as −log10 of the molar value.

Return pIC50 for the following molecule: COc1cc(Cl)c(C(=O)N[C@@H](CN[C@H]2CC[C@@H](N)CC2)Cc2ccc(C#N)cc2)cc1-c1ccc(CN[C@H](C)c2ccc(C)cc2)o1 [BAY-850]
6.80

====

- measuredOn: ATAD2 (Homo sapiens, UniProt Q6PL18)
- Sequence (Q6PL18 981-1108 limits assumed): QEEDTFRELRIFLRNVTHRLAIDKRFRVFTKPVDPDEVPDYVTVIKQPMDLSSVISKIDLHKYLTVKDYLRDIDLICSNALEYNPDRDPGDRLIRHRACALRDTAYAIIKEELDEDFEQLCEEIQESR
- assaySummary: BROMOscan
measure: Kd
Form entry: enter the amount, then its unit.

Return Kd for the following compound: COc1cc(Cl)c(C(=O)N[C@@H](CN[C@H]2CC[C@@H](N)CC2)Cc2ccc(C#N)cc2)cc1-c1ccc(CN[C@H](C)c2ccc(C)cc2)o1 [BAY-850]
115 nM
